# measurementDescription: Quantitative highthroughput screen to assess conditional lethalithy of P12 Ichikawa cells grown in Human Plasma-Like Medium with dialyzed fetal bovine serum (HPLM+ds) (AID 1963879); also: nearly all actives have a fitted effect of over 35% in size
# conditionDescription: ATP luminescence, 48 h; viability; series mostly up to 45.8 µM
Inconclusive results are not listed. Activity calls are given as the source filed them. Calls follow the shape of the dose curve; as a rule, active = well fitted cell-killing curve with a large enough effect; inconclusive = small, poorly fitted or top-dose-only effect; inactive = flat fitted curve, though single readings scatter.
A correct response names exactly one class from yes (1) for active, no (0) for inactive

1) Cc1noc(NS(=O)(=O)c2ccc(N)cc2)c1C: no (0)
2) CC1(C)[C@H](O[C@H]2O[C@H](C(=O)O)[C@@H](O)[C@H](O)[C@H]2O[C@@H]2O[C@H](C(=O)O)[C@@H](O)[C@H](O)[C@H]2O)CC[C@@]2(C)[C@H]1CC[C@]1(C)[C@H]2C(=O)C=C2[C@H]3C[C@@](C)(C(=O)O)CC[C@]3(C)CC[C@]21C: no (0)
3) O=C(Nc1ccc([N+](=O)[O-])cc1Cl)c1cc(Cl)ccc1O: yes (1)
4) Cc1cn([C@@H]2C[C@@H](O)[C@H](CO)O2)c(=O)[nH]c1=O: yes (1)
5) CON=C(C(=O)N[C@@H]1C(=O)N2C(C(=O)O)=C(Cn3ccc(=N)n3CCO)CS[C@H]12)c1csc(N)n1: no (0)
6) CCc1c2c(nc3ccc(OC(=O)N4CCC(N5CCCCC5)CC4)cc13)-c1cc3c(c(=O)n1C2)COC(=O)[C@]3(O)CC: yes (1)

What was the test verdict on COc1ccc2c(c1)CC[C@H]1[C@@H]2CC[C@]2(C)[C@@H](NCCCCCCN3C(=O)C=CC3=O)CC[C@H]12 ? no (0)

---

# measurementDescription: Viability qHTS for spleen associated tyrosine kinase inhibitor (SYKi) naive MV4-11 cells (AID 1963823); also: nearly all actives have a fitted effect of over 40% in size
# conditionDescription: MV4-11 AML viability, CellTiter-Glo luminescence, 72 h; series mostly up to 45 µM
Results filed as inconclusive are left out. The source made the active and inactive calls. Calls come from the whole dose curve; as a rule, active = well fitted cell-killing curve with a large enough effect; inconclusive = small, poorly fitted or top-dose-only effect, or effect the other way; inactive = no such curve, though single readings can be large or run the other way.
Allowed answers: True for active, False for inactive

1. C=C1C(=O)O[C@H]2C3=C(C)CCC[C@]3(C)C(=O)C[C@@H]12: True

Hello, I am checking results. What call was entered for NS(=O)(=O)c1cc(-c2nn[nH]n2)c(NCc2cccs2)cc1Cl ? False

Record request — test call for CC(CC(C)O[C@@H]1O[C@H](CO)[C@@H](O)[C@H](O)[C@H]1O)OC(=O)/C=C/c1ccc(O)cc1 (stereo partly specified) False

Could you check what this test reported for C[C@H]1C[C@H](O)c2ccsc2S1(=O)=O ? False

Call for entry COc1cccc(C(=O)NCCNc2nc3cc(C)cc(C)c3cc2C#N)c1 : False

Assay outcome for [O-][n+]1cccc(-c2nc3c(Cl)cccc3cc2[C@@H](Nc2ncnc3cccnc23)C(F)(F)F)c1 : what was it? True

---

# measurementDescription: Cellular viability qHTS for adrenocortical cancer (ACC) cell line SW-13 (AID 1963989); also: nearly all actives have a fitted effect of over 65% in size;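 as to activity (max response): cells grown in serum-free medium with ITS supplement; % is scaled to controls: 0 for no effect and ±100 for the full control effect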
# conditionDescription: SW-13 ACC cells viability, CellTiter-Glo, 48 h; active compounds read low
Inconclusive results are not listed.
recordedMetric: activity (max response) (%)
Enter your answer as a number in %; do not include the unit.

Below, 4 molecules whose answers are already recorded.
1) Cc1cc(O)c(-c2ccc([C@@H](C)CN)cc2)c2c1[nH]c(=O)c1sccc12: -7.01
2) Cc1nc2c([nH]1)c(=O)n(C)c(=O)n2Cc1ccco1: -2.81
3) COC(=O)C1=C(C)NC(C)=C(C(=O)OC(C)C)C1c1cccc2nonc12 (configuration not stated): 6.25
4) Cc1cccc(N(C)C(=S)Oc2ccc3ccccc3c2)c1: 2.38

// Input: CC(=O)OC[C@H]1O[C@@H](n2ncc(=O)[nH]c2=O)[C@H](OC(C)=O)[C@@H]1OC(C)=O . Output its activity (max response) only. -6.84

Please report activity (max response) for the following molecule: CC(=O)NCCCS(=O)(=O)O 5.88

Retrieve activity (max response) measured for O=C1OCCN1/N=C/c1ccc([N+](=O)[O-])o1 and print it. -0.921

---

# measurementDescription: Quantitative highthroughput screen to assess conditional lethalithy of NOMO1 cells grown in RPMI1640 with dialyzed fetal bovine serum (RPMI+ds) (AID 1963877); also: nearly all actives have a fitted effect of over 30% in size;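 as to viability: 100% = DMSO control wells and 0% = empty wells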
# conditionDescription: NOMO1 in RPMI+dialyzed FBS viability, ATP luminescence, 48 h; series mostly up to 45.8 µM
Results filed as inconclusive are left out. Active and inactive are the calls of the source. The call rests on the fitted dose curve; in most records, active means well fitted cell-killing curve with a large enough effect; inconclusive means small, poorly fitted or top-dose-only effect; inactive means flat fitted curve, though single readings scatter.
Response enum: active, inactive

1. Cc1cc2c(F)c(Oc3ncnn4cc(OC[C@@H](C)O)c(C)c34)ccc2[nH]1: inactive
2. CC(O)=C(C#N)C(=O)Nc1ccc(C(F)(F)F)cc1: inactive

Which outcome was assigned to CC(C)OC(=O)C1=CN(C(=O)c2ccc(F)c(F)c2)CC(C)(C)c2c1[nH]c1ccccc21 in this test? inactive

Which outcome did this test record for the molecule CN(C)CCOc1cc(-c2cn[nH]c2)ccc1NC(=O)C1COc2ccccc2O1 (stereo not given) ? active

Please let me know the test result on file for C=CC(=O)N1CCc2ccc(-n3c(=O)ccc4cnc5ccc(-c6cnn(C)c6)cc5c43)cc21 . active

Identify the outcome logged in this assay for the molecule shown: COc1ccc2c(OCc3nnc4ccc(-c5ccccc5)nn34)ccnc2c1 inactive

Given C=CCc1cc(OC)c(O)c(C(=O)NCCO)c1 , state the outcome it received in this test. inactive

How did this test come out for Cc1cc(O)c2c(c1)C(=O)c1cc(O)cc(O)c1C2=O ? inactive

Record request — test call for CCN1CCCC1CNC(=O)c1cc(S(N)(=O)=O)ccc1OC (stereo not given) inactive

What outcome does the record of this test show for CC(C)[C@H](N)C(=O)OCCOCn1cnc2c(=O)[nH]c(N)nc21 ? inactive

Please state the recorded outcome for this molecule: Cc1cccc(-c2nn(C(=S)Nc3ccccc3)cc2-c2ccnc3ccccc23)n1 inactive

Outcome? CN(C)CCc1c[nH]c2ccc(Cn3cncn3)cc12 active

Give the logged outcome of this assay for the following molecule: Cc1ccccc1C(C(=O)NC1CCCCC1)N(C(=O)Cn1ccnc1C)c1cccc(F)c1 (stereo not given) inactive

Which outcome was entered for the molecule Cc1cccc(C=NNc2cc(N3CCOCC3)nc(OCCc3ccccn3)n2)c1 in this test? active

Tell me the assay call for Nc1nc2ccc(OC(F)(F)F)cc2s1 please. inactive

---

# measurementDescription: Viability qHTS for spleen associated tyrosine kinase inhibitor (SYKi) drug resistant MV4-11 cells (AID 1963824); also: nearly all actives have a fitted effect of over 35% in size; also: potency is read from the fitted curve at half-maximal effect
# conditionDescription: SYKi-resistant MV4-11 viability, CellTiter-Glo, 72 h; series mostly up to 45 µM
Results filed as inconclusive are left out. Calls of active or inactive are those of the source. The call rests on the fitted dose curve; in most records, active means well fitted cell-killing curve with a large enough effect; inconclusive means small, poorly fitted or top-dose-only effect, or effect the other way; inactive means no such curve, though single readings can be large or run the other way.
recordedMetric: Potency

Some molecules with recorded Potency:
1. O=C1CCCc2c(O)cccc21: inactive
2. C=C1C(=O)O[C@@H]2C[C@@]3(C)CCC[C@H](C)C3=C[C@H]12: 7.31 µM (active)
3. O=C1NC(=Nc2ccccc2F)S/C1=C\c1ccc(C(=O)O)cc1: inactive
4. CS(=O)(=O)N(CC(=O)NCC1CC1)c1cc(C(F)(F)F)ccc1Cl: inactive

Next molecule, Potency to be filled in.
Check the records and state Potency for OCC(CO)N[C@H]1C[C@](O)(CO)[C@@H](O)[C@H](O)[C@H]1O inactive

---

# measurementDescription: Cellular viability qHTS for adrenocortical cancer (ACC) cell line SW-13 (AID 1963989); also: nearly all actives have a fitted effect of over 65% in size; also: potency is read from the fitted curve at half-maximal effect
# conditionDescription: SW-13 ACC cells viability, CellTiter-Glo, 48 h
Inconclusive results are not listed. Active and inactive are the calls of the source. Calls come from the whole dose curve; as a rule, active = well fitted cell-killing curve with a large enough effect; inconclusive = small, poorly fitted or top-dose-only effect; inactive = flat fitted curve, though single readings scatter.
recordedMetric: Potency

Guide cases for Potency, answers given:
1) CC(/C=C/C(=O)NO)=C\[C@@H](C)C(=O)c1ccc(N(C)C)cc1: 6.31 µM (active)
2) C[C@@H](NCc1cc2ccccc2[nH]1)c1cccc2ccccc12: 25.1 µM (active)
3) Cc1c(NC(=O)OC[C@@H]2COCCN2)cn2ncnc(Nc3ccc4c(cnn4Cc4cccc(F)c4)c3)c12: 15.8 µM (active)
4) FC(F)(F)c1ccc(Nc2nc3ccc(Oc4ccnc(-c5ncc(C(F)(F)F)[nH]5)c4)cc3[nH]2)cc1: 22.4 µM (active)
5) CC(C)(C)CC(C)(C)c1ccc(O)c(Cc2ccc(Cl)cc2Cl)c1: 16.4 µM (active)
6) O[C@@H](COc1cccc2ncccc12)CN1CCN(C2c3ccccc3[C@@H]3[C@H](c4ccccc42)C3(F)F)CC1 (stereo not given in full): 20.6 µM (active)

Consider the compound CCC(c1ccc(O)cc1)C(CC)c1ccc(O)cc1 (stereo not given) . State its measured Potency. 17.8 µM (active)

Respond only with Potency recorded for CN(C)c1ccccc1CN1CCCN(Cc2ccccc2N(C)C)C1c1ccncc1 28.2 µM (active)

State its Potency: C[C@@H](Oc1cc(C(=O)Nc2ccc(C(=O)N3CCN(C)CC3)cc2)nnc1N)c1c(Cl)ccc(F)c1Cl 17.8 µM (active)

// Input: Cc1cc(OCCOCC[N+](C)(C)Cc2ccccc2)ccc1C(C)(C)CC(C)(C)C . Output its Potency only. 5.8 µM (active)

Consider the compound Cc1ncc(NC(=O)c2cccc(C(F)(F)F)c2)cc1-c1cnc(OC2CCOCC2)c(N2CCOCC2)c1 and give its recorded Potency. 22.4 µM (active)

Supply measured Potency of CC1(N)CCN(c2cccnc2NC(=O)c2nc(-c3ncccc3C(F)(F)F)cnc2N)CC1 in your reply. 17.8 µM (active)

Identify the reported Potency for the following entry. CN1C(=O)c2sccc2N(C)c2nc(Nc3ccc(S(N)(=O)=O)cc3)ncc21 20 µM (active)

Provide one value: measured Potency of C/C(=C\C(=O)Nc1ccccc1C(=O)O)c1ccc2ccccc2c1 12.6 µM (active)

Please give the documented Potency of COC(=O)Nc1nc2ccc(C(=O)c3ccc(F)cc3)cc2[nH]1 0.355 µM (active)
